Please go through the items and note down their MIC.
- Test system: Ps. aeruginosa NCTC 10662
- Assay: MIC against human bacteria in vitro (nutrient agar, chocolated horse blood)
- Type: cell-based
- Protocol Conditions: Pseudomonas aeruginosa, NCTC10662; human; Ps. aeruginosa NCTC 10662; 18 hours at 37° C; read-out: MIC
- Experimental: The activity of the normonyl derivaties of the Examples against various bacteria which are important in diseases of humans, was assayed in vitro using serial dilutions in nurient agar with 5% chocolated horse blood.

Recorded MIC of COC(=O)CCCCCCCCn1nnnc1C=C(C)CC1OCC(CC2OC2C(C)C(C)O)C(O)C1O (stereo not drawn) , please. > 64 µg/mL

Record: CC(=Cc1nnc(-c2cccc(C#N)c2)o1)CC1OCC(CC2OC2C(C)C(C)O)C(O)C1O (stereo not drawn) > 64 µg/mL

Record: CC(=Cc1nnc(-c2ccc(N(C)C)cc2)o1)CC1OCC(CC2OC2C(C)C(C)O)C(O)C1O (stereo not drawn) > 128 µg/mL

Record: CSc1ccc(-c2nnc(C=C(C)CC3OCC(CC4OC4C(C)C(C)O)C(O)C3O)o2)cc1 (stereo not drawn) > 128 µg/mL

Record: CC(=Cc1nnnn1CCCCCCCCC(=O)O)CC1OCC(CC2OC2C(C)C(C)O)C(O)C1O (stereo not drawn) > 128 µg/mL

Record: CC(=Cc1nnc(-c2cccs2)o1)CC1OCC(CC2OC2C(C)C(C)O)C(O)C1O (stereo not drawn) > 128 µg/mL

Record: CC(=Cc1nc(-c2ccccc2)no1)CC1OCC(CC2OC2C(C)C(C)O)C(O)C1O (stereo not drawn) > 128 µg/mL

Record: CC(=Cc1nnc(-c2cccc([N+](=O)[O-])c2)o1)CC1OCC(CC2OC2C(C)C(C)O)C(O)C1O (stereo not drawn) > 128 µg/mL

Record: CC(=Cc1nnnn1Cc1ccc([N+](=O)[O-])cc1)CC1OCC(CC2OC2C(C)C(C)O)C(O)C1O (stereo not drawn) > 100 µg/mL

Record: CC(=Cc1nnc(-c2ccco2)o1)CC1OCC(CC2OC2C(C)C(C)O)C(O)C1O (stereo not drawn) > 128 µg/mL

Record: CC(=Cc1noc(-c2ccccc2)n1)CC1OCC(CC2OC2C(C)C(C)O)C(O)C1O (stereo not drawn) > 128 µg/mL

Record: CC(=Cc1nc(-c2ccc([N+](=O)[O-])cc2)no1)CC1OCC(CC2OC2C(C)C(C)O)C(O)C1O (stereo not drawn) > 64 µg/mL

Record: CC(=Cc1nnc(-c2ccc(S(C)(=O)=O)cc2)o1)CC1OCC(CC2OC2C(C)C(C)O)C(O)C1O (stereo not drawn) > 64 µg/mL

Record: CC(=Cc1nnc(-c2ccncc2)o1)CC1OCC(CC2OC2C(C)C(C)O)C(O)C1O (stereo not drawn) > 128 µg/mL

Record: CC(=Cc1nnc(-c2cccnc2)o1)CC1OCC(CC2OC2C(C)C(C)O)C(O)C1O (stereo not drawn) > 128 µg/mL

----------
- System: M. hyopneumoniae TAM 6N
- Assay: MIC against Mycoplasma in vitro (Friis broth with agarose)
- Type: cell-based
- Protocol Conditions: Mesomycoplasma hyopneumoniae, TAM6N, 144 h
Please go through the items and note down their MIC.
Write it as a number; the unit µg/mL goes unstated.

Recorded MIC of CC(=Cc1nnc(-c2cccc([N+](=O)[O-])c2)o1)CC1OCC(CC2OC2C(C)C(C)O)C(O)C1O (stereo not shown) , please. 0.05

Record: CC(=Cc1nnc(-c2cccs2)o1)CC1OCC(CC2OC2C(C)C(C)O)C(O)C1O (stereo not shown) 5

Record: CC(=Cc1nnc(-c2ccc(N(C)C)cc2)o1)CC1OCC(CC2OC2C(C)C(C)O)C(O)C1O (stereo not shown) 5

Record: CC(=CC(=O)NN)CC1OCC(CC2OC2C(C)C(C)O)C(O)C1O (stereo not shown) [Example 9, Monohydrazide A] 10

----------
Please go through the items and note down their MIC.
- Test system: M. hyopneumoniae UCD 1
- Assay: MIC against Mycoplasma in vitro (Friis broth with agarose)
- Format: cell-based
- Protocol Conditions: Mesomycoplasma hyopneumoniae, UCD1, 144 h

Recorded MIC of CC(=Cc1nnc(-c2cccc(C#N)c2)o1)CC1OCC(CC2OC2C(C)C(C)O)C(O)C1O (stereo not drawn) , please. 0.25 µg/mL

Record: CC(=Cc1nnc(-c2cccs2)o1)CC1OCC(CC2OC2C(C)C(C)O)C(O)C1O (stereo not drawn) 5 µg/mL

Record: CC(=Cc1nnc(-c2ccc(N(C)C)cc2)o1)CC1OCC(CC2OC2C(C)C(C)O)C(O)C1O (stereo not drawn) 2.5 µg/mL

----------
- System: E. coli NCTC 10418
- Assay: MIC against human bacteria in vitro (nutrient agar, chocolated horse blood)
- Type: cell-based
- Protocol Conditions: Escherichia coli, NCTC10418; human; E. coli NCTC 10418; 18 hours at 37° C; read-out: MIC
Measured Parameter: MIC

Checklist item: MIC tested on E. coli NCTC 10418, entry CC(=Cc1nnc(-c2cccc([N+](=O)[O-])c2)o1)CC1OCC(CC2OC2C(C)C(C)O)C(O)C1O (centres unmarked) , value? > 128 µg/mL

Record: CC(=Cc1nnc(-c2cccc(C#N)c2)o1)CC1OCC(CC2OC2C(C)C(C)O)C(O)C1O (centres unmarked) > 64 µg/mL

Record: CC(=Cc1nnc(-c2ccc(S(C)(=O)=O)cc2)o1)CC1OCC(CC2OC2C(C)C(C)O)C(O)C1O (centres unmarked) > 64 µg/mL

Record: CC(=Cc1nnc(-c2ccc(N(C)C)cc2)o1)CC1OCC(CC2OC2C(C)C(C)O)C(O)C1O (centres unmarked) > 128 µg/mL

Record: CC(=Cc1nnc(-c2ccco2)o1)CC1OCC(CC2OC2C(C)C(C)O)C(O)C1O (centres unmarked) > 128 µg/mL

Record: CC(=Cc1noc(-c2ccccc2)n1)CC1OCC(CC2OC2C(C)C(C)O)C(O)C1O (centres unmarked) > 128 µg/mL

Record: CC(=Cc1nnc(-c2cccs2)o1)CC1OCC(CC2OC2C(C)C(C)O)C(O)C1O (centres unmarked) > 128 µg/mL

Record: CC(=Cc1nnnn1CCCCCCCCC(=O)O)CC1OCC(CC2OC2C(C)C(C)O)C(O)C1O (centres unmarked) > 128 µg/mL

Record: CC(=Cc1nnnn1Cc1ccc([N+](=O)[O-])cc1)CC1OCC(CC2OC2C(C)C(C)O)C(O)C1O (centres unmarked) > 100 µg/mL

Record: CC(=Cc1nnc(-c2ccncc2)o1)CC1OCC(CC2OC2C(C)C(C)O)C(O)C1O (centres unmarked) > 128 µg/mL

Record: CC(=Cc1nnc(-c2cccnc2)o1)CC1OCC(CC2OC2C(C)C(C)O)C(O)C1O (centres unmarked) > 128 µg/mL

----------
- Test system: M. hyopneumoniae NCTC 101101
- Assay: MIC against Mycoplasma in vitro (Friis broth with agarose)
- Type: cell-based
- Protocol Conditions: Mesomycoplasma hyopneumoniae, NCTC101101, 144 h
Please go through the items and note down their MIC.
Write it as a number; the unit µg/mL goes unstated.

Recorded MIC of CC(=Cc1nc(-c2ccc([N+](=O)[O-])cc2)no1)CC1OCC(CC2OC2C(C)C(C)O)C(O)C1O (stereo not drawn) , please. 1

Record: CC(=Cc1nnc(-c2ccc(N(C)C)cc2)o1)CC1OCC(CC2OC2C(C)C(C)O)C(O)C1O (stereo not drawn) 5

Record: CC(=Cc1nnc(-c2cccc(C#N)c2)o1)CC1OCC(CC2OC2C(C)C(C)O)C(O)C1O (stereo not drawn) 0.25

----------
- Test system: E. coli NCTC 10418
- Assay: MIC against human bacteria in vitro (nutrient agar, chocolated horse blood)
- Type: cell-based
- Protocol Conditions: Escherichia coli, NCTC10418; human; E. coli NCTC 10418; 18 hours at 37° C; read-out: MIC
Please go through the items and note down their MIC.

Recorded MIC of CC(=Cc1nc(-c2ccc([N+](=O)[O-])cc2)no1)CC1OCC(CC2OC2C(C)C(C)O)C(O)C1O (stereo not shown) [Example 16] , please. > 64 µg/mL

Record: CC(=Cc1nc(-c2ccccc2)no1)CC1OCC(CC2OC2C(C)C(C)O)C(O)C1O (stereo not shown) [Example 15] > 128 µg/mL

Record: COC(=O)CCCCCCCCn1nnnc1C=C(C)CC1OCC(CC2OC2C(C)C(C)O)C(O)C1O (stereo not shown) [Example 13] > 64 µg/mL

Record: CSc1ccc(-c2nnc(C=C(C)CC3OCC(CC4OC4C(C)C(C)O)C(O)C3O)o2)cc1 (stereo not shown) [Example 3] > 128 µg/mL

----------
- System: Corynebacterium xerosis 9755
- Assay: MIC against human bacteria in vitro (nutrient agar, chocolated horse blood)
- Type: cell-based
- Protocol Conditions: human; Corynebacterium xerosis 9755; 18 hours at 37° C; read-out: MIC
Measured Parameter: MIC

Recorded MIC of CC(=Cc1noc(-c2ccccc2)n1)CC1OCC(CC2OC2C(C)C(C)O)C(O)C1O (stereo not drawn) [Example 17] , please. > 128 µg/mL

Record: CC(=Cc1nc(-c2ccc([N+](=O)[O-])cc2)no1)CC1OCC(CC2OC2C(C)C(C)O)C(O)C1O (stereo not drawn) [Example 16] > 64 µg/mL

Record: CC(=Cc1nc(-c2ccccc2)no1)CC1OCC(CC2OC2C(C)C(C)O)C(O)C1O (stereo not drawn) [Example 15] > 128 µg/mL
